// data source = patent US20240368150A1

# Tested on: primary human T-cells
# TEST_DESCRIPTION: Proliferation assay after 5 days (CellTiter-Glo, CD3 stimulation; PBS counter screen)
# Type: cell-based
# MEASUREMENT_CONTEXT: Homo sapiens, T-cell, 120 h, primary human T-cells, CD3 stimulation, CellTiter-Glo after 5 days; EC50 of fitted sigmoidal curve; read-out: Tcell Proliferation CD3 EC50
PROPERTY_LABEL: EC50 (nM)
Give the number; nM is assumed, so skip it.

Below: 4 compounds and their reported EC50.
COMPOUND | EC50, nM
Cc1cccc(-c2nnc(-c3cc4c(cc3F)S(=O)(=O)C[C@H](N)C(=O)N4Cc3ccc(Cl)cc3)o2)c1 | 955
CC1(c2nnc(-c3cc4c(cc3F)S(=O)(=O)C[C@H](N)C(=O)N4Cc3ccc(Cl)cc3)o2)CCCO1 (stereo partly shown) | 242
COC(F)(c1nc(-c2cc3c(cc2F)S(=O)(=O)C[C@H](N)C(=O)N3Cc2ccc(Cl)cc2)no1)C(F)(F)F (stereo partly shown) | 31.9
CC(C)(C)c1nc(-c2cc3c(cc2F)S(=N)(=O)C[C@H](N)C(=O)N3Cc2ccc(Cl)cc2)no1 (stereo partly shown) | 8330

IN: Entry CCc1cnn(-c2cc3c(cc2F)S(=O)(=O)C[C@H](N)C(=O)N3Cc2ccc(Cl)cc2)c1 needs its EC50 filled in; supply it.
OUT: 5490

IN: Entry CC(C)(C)c1nnc(-c2cc3c(cc2F)S(=O)(=O)C[C@H](N)C(=O)N3Cc2ccc(OC3CCCC3)cc2)o1 needs its EC50 filled in; supply it.
OUT: 40.3

IN: Entry Cc1cc(S(C)(=O)=O)ccc1-c1nc(-c2cc3c(cc2F)S(=O)(=O)C[C@H](N)C(=O)N3Cc2ccc(Cl)cc2)no1 needs its EC50 filled in; supply it.
OUT: 155
